Biological target: T1, 4H264-bN
T1 chain: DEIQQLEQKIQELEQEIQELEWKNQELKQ
Test: two-hybrid library CCNG1;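 note: natural log of median RNA to DNA barcode read ratio; higher means stronger binding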
Doc: threshold -0.2 (exclusive). Items with interaction score beneath it return rule met; others return rule not met.

- BINDER: "DKIQQLEQENQELKQEIQELKWKIQELEQ [4H2253-bN]"
  CAT: "rule not met"
- BINDER: "DKIQQLEQEIQELKQKNQELEWEIQELKQ [4H2162-bN]"
  CAT: "rule met"
- BINDER: "DEIQQLEQKIQELEQEIQELEWKNQELKQ [4H264-bN]"
  CAT: "rule met"
- BINDER: "DKIQQLKQEIQELEQENQELKWEIQELEQ [4H2585-bN]"
  CAT: "rule met"
- BINDER: "DKIQQLEQKNQELEQEIQELKWENQELKQ [4H2444-bN]"
  CAT: "rule not met"
- BINDER: "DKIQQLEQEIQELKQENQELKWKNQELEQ [4H2143-bN]"
  CAT: "rule not met"
